biological target: SGLT2 (Homo sapiens, UniProt P31639); construct: Human full-length SGLT2 cDNA (NM_003041.3) was synthesized; expressed in transfected cells; host or cells: HEK293, retroviral transduction with pMSCVpuro-SGLT2, puromycin selected; experiment: 1-NBDG uptake in HEK293 cells stably expressing SGLT2; type: cell-based; settings: HEK293, compound at 10 μM; triplicate; read-out: SGLT2 inhibitory rates
Sequence (P31639 whole entry): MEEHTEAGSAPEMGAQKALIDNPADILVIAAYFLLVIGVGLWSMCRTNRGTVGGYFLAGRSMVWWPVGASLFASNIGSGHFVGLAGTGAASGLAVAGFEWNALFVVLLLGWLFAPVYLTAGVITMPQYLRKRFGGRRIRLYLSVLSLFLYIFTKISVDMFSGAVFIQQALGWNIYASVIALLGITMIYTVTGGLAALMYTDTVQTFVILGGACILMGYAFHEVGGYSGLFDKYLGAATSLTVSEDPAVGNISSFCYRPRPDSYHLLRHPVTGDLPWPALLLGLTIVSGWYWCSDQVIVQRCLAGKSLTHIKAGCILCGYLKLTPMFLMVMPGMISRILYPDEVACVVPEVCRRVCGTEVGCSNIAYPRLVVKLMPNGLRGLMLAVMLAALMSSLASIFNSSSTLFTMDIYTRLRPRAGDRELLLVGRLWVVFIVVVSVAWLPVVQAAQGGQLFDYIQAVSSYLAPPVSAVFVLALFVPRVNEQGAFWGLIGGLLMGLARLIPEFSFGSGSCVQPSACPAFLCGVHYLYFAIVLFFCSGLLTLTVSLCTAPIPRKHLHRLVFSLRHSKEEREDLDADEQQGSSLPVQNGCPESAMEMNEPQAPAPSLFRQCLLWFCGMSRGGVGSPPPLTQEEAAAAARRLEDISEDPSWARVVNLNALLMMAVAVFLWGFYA
Reported inhibition at 10 µM is given for each of the following compounds.
Give the quantity in %, number only.

Example entries and their recorded answers appear below.
Compound: O=C(CCc1ccc(O)cc1)c1c(O)cc(O)c(C2OCC(O)C(O)C2O)c1O [Compound 17c, phloretin-3′-C-β-D-xyloside]
Unit Label: %
inhibition at 10 µM: 1.7
--
Compound: Oc1cc(O)c(Cc2ccccc2)c(O)c1
Unit Label: %
inhibition at 10 µM: 4.2
--
Compound: OCC1OC(c2c(O)cc(O)c(CCc3ccc(F)cc3)c2O)C(O)C(O)C1O (stereo not shown) [Compound 53a]
Unit Label: %
inhibition at 10 µM: 24.3
--
Compound: O=C(CCc1ccc(O)cc1)c1c(O)c([C@@H]2O[C@H](CO)[C@@H](O)[C@H](O)[C@H]2O)c(O)c([C@@H]2O[C@H](CO)[C@@H](O)[C@H](O)[C@H]2O)c1O [Compound 17aa]
Unit Label: %
inhibition at 10 µM: 2.8
--
Compound: OCC1OC(c2c(O)cc(O)c(CCc3ccc(O)cc3)c2O)C(O)C(O)C1O (stereo not shown) [Compound 51a]
Unit Label: %
inhibition at 10 µM: 18.6

Item under review: Oc1cc(O)c(CCc2c[nH]c3ccccc23)c(O)c1 . Reported inhibition at 10 µM?
12.9

----------
biological target: SGLT2 (Homo sapiens); construct: Human full-length SGLT2 cDNA (NM_003041.3) was synthesized; expressed in transfected cells; host or cells: HEK293, retroviral transduction with pMSCVpuro-SGLT2, puromycin selected; assay: 1-NBDG uptake in HEK293 cells stably expressing SGLT2; format: cell-based; details: compound at 10 μM; triplicate; 10 µM
Below is a list of entries, each paired with its recorded SGLT2 inhibitory rates value.
Give the value in % but do not write % after it.

The following compounds have reported results that may help.
Compound: OCC1OC(c2c(O)cc(O)c(Cc3ccc(Cl)cc3)c2O)C(O)C(O)C1O (stereo not drawn) [Compound 49a]
SGLT2 inhibitory rates (%): 98.5

Compound: OCC1OC(c2c(O)cc(O)c(Cc3ccc(-c4ccccc4)cc3)c2O)C(O)C(O)C1O (stereo not drawn) [Compound 50a]
SGLT2 inhibitory rates (%): 96.3

Compound: OCC1OC(c2c(O)cc(O)c(Cc3ccc4nccnc4c3)c2O)C(O)C(O)C1O (stereo not drawn) [Compound 44a]
SGLT2 inhibitory rates (%): 96.6

Compound: CCOc1ccc(Cc2cc([C@@H]3O[C@H](CO)[C@@H](O)[C@H](O)[C@H]3O)ccc2Cl)cc1 [Dapagliflozin, reference compound]
SGLT2 inhibitory rates (%): 102.4

Compound: Cc1ccc(Cc2c(O)cc(O)c(C3OC(CO)C(O)C(O)C3O)c2O)cc1 (stereo not drawn) [Compound 46a]
SGLT2 inhibitory rates (%): 100

Turning now to a further record.
Please give the measured SGLT2 inhibitory rates for this compound: CCCCc1ccc(Cc2c(O)cc(O)c(C3OC(CO)C(O)C(O)C3O)c2O)cc1 (stereo not drawn) [Compound 47a]
100

----------
assay: in vitro; conditions: human
Readout: CC50

What measured CC50 goes with Oc1cc(O)c(Cc2ccc3nccnc3c2)c(O)c1 [Compound 44] ?
> 200 µM

----------
target: AbCGT (Aloe vera); assay: Glycosyltransferase activity assay, purified AbCGT (wild type) with aglycon acceptors and UDP-Glc; type: biochemical, Aloe barbadensis; settings: reaction-1
Readout: WT/yield of C-glycoside(%)
Give your result in % as a bare value.

Worked examples follow.
Compound: CC(=O)c1ccc(O)cc1 [Compound 3]
Assay Target: AbCGT (Aloe vera)
Unit Label: %
WT/yield of C-glycoside(%): 0
--
Compound: COc1cc(O)c(C(C)=O)c(OC)c1 [Compound 14]
Assay Target: AbCGT (Aloe vera)
Unit Label: %
WT/yield of C-glycoside(%): 0
--
Compound: CC(=O)c1c(O)cccc1O [Compound 5]
Assay Target: AbCGT (Aloe vera)
Unit Label: %
WT/yield of C-glycoside(%): 15.1
--
Compound: Oc1cc(O)cc(OCCCCCCc2ccccc2)c1 [Compound 22]
Assay Target: AbCGT (Aloe vera)
Unit Label: %
WT/yield of C-glycoside(%): 9.6
--
Compound: CC(=O)c1cc(O)cc(O)c1 [Compound 4, 3,5-dihydroxyacetophenone]
Assay Target: AbCGT (Aloe vera)
Unit Label: %
WT/yield of C-glycoside(%): 1
--
Compound: CC(=O)c1ccccc1O [Compound 1]
Assay Target: AbCGT (Aloe vera)
Unit Label: %
WT/yield of C-glycoside(%): 0
--
Compound: CC(=O)c1ccc(O)cc1O [Compound 6, 2,4-dihydroxyacetophenone]
Assay Target: AbCGT (Aloe vera)
Unit Label: %
WT/yield of C-glycoside(%): 29.2
--
Compound: CC(=O)c1c(O)cc(C)cc1O [Compound 7]
Assay Target: AbCGT (Aloe vera)
Unit Label: %
WT/yield of C-glycoside(%): 15.2

Could you share which WT/yield of C-glycoside(%) value was measured for CC(=O)c1cccc(O)c1 [Compound 2] ?
0

Again, but for O=C1CC(O)(c2ccc(O)cc2)Oc2cc(O)cc(O)c21 (centres unmarked) [Compound 23, 2-hydroxynaringenin]
82

Field entry: COc1cc(O)c(C(C)=O)c(O)c1 [Compound 13]
70.5

----------
molecular target: AbCGT (Aloe vera, UniProt A0A7G9P699); experiment: Glycosyltransferase activity assay, purified AbCGT (wild type) with aglycon acceptors and UDP-Glc; format: biochemical, Aloe barbadensis; conditions: reaction-2
Sequence (A0A7G9P699 entry or part of it): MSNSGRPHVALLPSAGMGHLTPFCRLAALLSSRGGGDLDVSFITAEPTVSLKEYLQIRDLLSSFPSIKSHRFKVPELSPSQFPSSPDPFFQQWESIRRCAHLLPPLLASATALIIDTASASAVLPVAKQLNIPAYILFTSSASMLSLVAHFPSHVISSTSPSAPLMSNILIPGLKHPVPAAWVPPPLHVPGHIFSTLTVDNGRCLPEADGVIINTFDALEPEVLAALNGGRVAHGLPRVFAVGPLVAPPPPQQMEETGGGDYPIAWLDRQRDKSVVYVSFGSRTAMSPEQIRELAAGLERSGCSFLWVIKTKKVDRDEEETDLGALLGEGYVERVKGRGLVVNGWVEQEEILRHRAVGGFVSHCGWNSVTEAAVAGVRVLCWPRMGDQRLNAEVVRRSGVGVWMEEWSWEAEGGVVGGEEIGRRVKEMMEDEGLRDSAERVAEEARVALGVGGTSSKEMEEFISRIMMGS
Readout: WT/yield of C-glycoside(%)
Express the result in % but write the number alone.

Example entries and their recorded answers appear below.
Compound: COc1cc(O)c(C(C)=O)c(OC)c1
Assay Target: AbCGT (Aloe vera, UniProt A0A7G9P699)
Unit Label: %
WT/yield of C-glycoside(%): 0
--
Compound: CC(=O)c1cc(O)cc(O)c1 [Compound 4, 3,5-dihydroxyacetophenone]
Assay Target: AbCGT (Aloe vera, UniProt A0A7G9P699)
Unit Label: %
WT/yield of C-glycoside(%): 0.8
--
Compound: CC(=O)c1ccccc1O
Assay Target: AbCGT (Aloe vera, UniProt A0A7G9P699)
Unit Label: %
WT/yield of C-glycoside(%): 0
--
Compound: CC(=O)c1ccc(O)cc1
Assay Target: AbCGT (Aloe vera, UniProt A0A7G9P699)
Unit Label: %
WT/yield of C-glycoside(%): 0
--
Compound: Oc1cc(O)cc(OCCCCCCc2ccccc2)c1
Assay Target: AbCGT (Aloe vera, UniProt A0A7G9P699)
Unit Label: %
WT/yield of C-glycoside(%): 11
--
Compound: CC(=O)c1cccc(O)c1
Assay Target: AbCGT (Aloe vera, UniProt A0A7G9P699)
Unit Label: %
WT/yield of C-glycoside(%): 0
--
Compound: CC(=O)c1c(O)cc(C)cc1O
Assay Target: AbCGT (Aloe vera, UniProt A0A7G9P699)
Unit Label: %
WT/yield of C-glycoside(%): 14.1
--
Compound: COc1cc(O)c(C(C)=O)c(O)c1
Assay Target: AbCGT (Aloe vera, UniProt A0A7G9P699)
Unit Label: %
WT/yield of C-glycoside(%): 65
--
Compound: CC(=O)c1c(O)cccc1O
Assay Target: AbCGT (Aloe vera, UniProt A0A7G9P699)
Unit Label: %
WT/yield of C-glycoside(%): 14.2
--
Compound: CC(=O)c1ccc(O)cc1O [Compound 6, 2,4-dihydroxyacetophenone]
Assay Target: AbCGT (Aloe vera, UniProt A0A7G9P699)
Unit Label: %
WT/yield of C-glycoside(%): 25.9

Let's switch to this compound now.
Tell me the measured WT/yield of C-glycoside(%) of O=C1CC(O)(c2ccc(O)cc2)Oc2cc(O)cc(O)c21 (centres unmarked) [Compound 23, 2-hydroxynaringenin] , please.
84.9

----------
molecular target: SGLT2 (Homo sapiens, UniProt P31639); construct: Human full-length SGLT2 cDNA (NM_003041.3) was synthesized; expressed in transfected cells; host or cells: HEK293, retroviral transduction with pMSCVpuro-SGLT2, puromycin selected; experiment: 1-NBDG uptake in HEK293 cells stably expressing SGLT2; assay type: cell-based; settings: HEK293, compound at 10 μM; triplicate; read-out: SGLT2 inhibitory rates
Readings of inhibition at 10 µM for the listed compounds
I only need the number, in %, no unit after it.

Smiles Notation: COc1ccc(CCc2ccc(O)cc2O)cc1
inhibition at 10 µM (%): 1.8
--
Smiles Notation: Oc1ccc(CCc2c(O)cc(O)cc2O)cc1
inhibition at 10 µM (%): 3.3

Next compound, inhibition at 10 µM to be filled in.
Would you mind telling me what inhibition at 10 µM value was observed for Oc1cc(O)c(Cc2ccc(-c3ccccc3)cc2)c(O)c1 ?
0.2

Provenance of the data: paper PMC7558026
